Biodistribution Kidney reference
- Tested on: HT-1080.hFAP and HT-1080.wt xenografts
- protocolDescription: Quantitative biodistribution in HT-1080.hFAP and HT-1080.wt xenografted mice
- Type: in vivo
- conditionSummary: 4 h p.i., HT-1080.hFAP and HT-1080.wt xenografts
readoutKind: Biodistribution Kidney (% IA/g)

[[record]]
compound = "N#C[C@@H]1CC(F)(F)CN1C(=O)CNC(=O)c1ccnc2ccc(NC(=O)CCC(=O)NCCNC(=O)CC[C@H](C(=O)O)N3CCN4CCN(CC3)CC(=O)[O][61Cu][O]C(=O)C4)cc12 [[^61Cu]Cu-NODAGA-F1]"
endpointresult = 1.5

[[record]]
compound = "CN(CCCN1CCN(C(=O)CCC(C(=O)O)N2CCN3CCN(CC2)CC(=O)[O][61Cu][O]C(=O)C3)CC1)c1ccc2nccc(C(=O)NCC(=O)N3CC(F)(F)C[C@H]3C#N)c2c1 (some centres unmarked) [[^61Cu]Cu-NODAGA-FAPI-46]"
endpointresult = 1.0

[[record]]
compound = "CN(C(=O)CCC(=O)N1CCN(C(=O)CC[C@H](C(=O)O)N2CCN3CCN(CC2)CC(=O)[O][61Cu][O]C(=O)C3)CC1)c1ccc2nccc(C(=O)NCC(=O)N3CC(F)(F)C[C@H]3C#N)c2c1 [[^61Cu]Cu-NODAGA-F4]"
endpointresult = 1.1

[[record]]
compound = "N#C[C@@H]1CC(F)(F)CN1C(=O)CNC(=O)c1ccnc2ccc(NC(=O)CCC(=O)N3CCN(C(=O)CC[C@H](C(=O)O)N4CCN5CCN(CC4)CC(=O)[O][61Cu][O]C(=O)C5)CC3)cc12 [[^61Cu]Cu-NODAGA-F3]"
endpointresult = 1.0

[[record]]
compound = "CN(C(=O)CCC(=O)NCCNC(=O)CC[C@H](C(=O)O)N1CCN2CCN(CC1)CC(=O)[O][61Cu][O]C(=O)C2)c1ccc2nccc(C(=O)NCC(=O)N3CC(F)(F)C[C@H]3C#N)c2c1 [[^61Cu]Cu-NODAGA-F2]"
endpointresult = 1.0


====

- protocolDescription: Lipophilicity, log D by shake-flask method (1-octanol/PBS pH 7.4)
- Type: physicochemical
- conditionSummary: pH 7.4, shake-flask, Table 17, mean ± SD, read-out: log D(O/PBS pH 7.4)
readoutKind: logD

[[record]]
compound = "C[C@@H](O)[C@@H]1NC(=O)[C@H](CCCCN)NC(=O)[C@@H](Cc2ccc(NC(N)=O)cc2)NC(=O)[C@H](Cc2ccc(O)cc2)NC(=O)[C@H](NC(=O)[C@H](Cc2ccc(Cl)cc2)NC(=O)CCC(C(=O)O)N2CCN(CC(=O)O)CCN(CC(=O)O)CC2)CSSC[C@@H](C(=O)N[C@H](Cc2ccc(O)cc2)C(N)=O)NC1=O (some centres unmarked) [[^61Cu]Cu-NODAGA-LM3, metal not drawn]"
readoutkind = "logD"
endpointresult = -2.42

[[record]]
compound = "C[C@@H](O)[C@@H]1NC(=O)[C@H](CCCCN)NC(=O)[C@@H](Cc2c[nH]c3ccccc23)NC(=O)[C@H](Cc2ccc(O)cc2)NC(=O)[C@@H](NC(=O)[C@@H](Cc2ccccc2)NC(=O)CCC(C(=O)O)N2CCN(CC(=O)O)CCN(CC(=O)O)CC2)CSSC[C@@H](C(=O)N[C@H](CO)[C@@H](C)O)NC1=O (single isomer, unassigned) [[^68Ga]Ga-NODAGA-TOC, metal not drawn]"
readoutkind = "logD"
endpointresult = -2.48


====

Biodistribution Heart reference
- Tested on: HT-1080.hFAP and HT-1080.wt xenografts
- protocolDescription: Quantitative biodistribution in HT-1080.hFAP and HT-1080.wt xenografted mice
- Format: in vivo
- conditionSummary: 4 h p.i., HT-1080.hFAP and HT-1080.wt xenografts
readoutKind: Biodistribution Heart

[[record]]
compound = "N#C[C@@H]1CC(F)(F)CN1C(=O)CNC(=O)c1ccnc2ccc(NC(=O)CCC(=O)N3CCN(C(=O)CC[C@H](C(=O)O)N4CCN5CCN(CC4)CC(=O)[O][61Cu][O]C(=O)C5)CC3)cc12 [[^61Cu]Cu-NODAGA-F3]"
targetortestsystem = "HT-1080.hFAP and HT-1080.wt xenografts"
endpointresult = "0.5 ± 0.0 % IA/g"

[[record]]
compound = "CN(C(=O)CCC(=O)N1CCN(C(=O)CC[C@H](C(=O)O)N2CCN3CCN(CC2)CC(=O)[O][61Cu][O]C(=O)C3)CC1)c1ccc2nccc(C(=O)NCC(=O)N3CC(F)(F)C[C@H]3C#N)c2c1 [[^61Cu]Cu-NODAGA-F4]"
targetortestsystem = "HT-1080.hFAP and HT-1080.wt xenografts"
endpointresult = "0.2 ± 0.0 % IA/g"


====

- protocolDescription: in vivo
- conditionSummary: athymic nude Foxn1+Foxn1+, mouse, iv, 20 umol, total radioactivity, Biodistribution Stomach
tissue uptake at 4 h reference
readoutKind: tissue uptake at 4 h (%ID/g)

[[record]]
molecule = "C[C@@H](O)[C@@H]1NC(=O)[C@H](CCCCN)NC(=O)[C@@H](Cc2ccc(NC(N)=O)cc2)NC(=O)[C@H](Cc2ccc(O)cc2)NC(=O)[C@H](NC(=O)[C@H](Cc2ccc(Cl)cc2)NC(=O)CCC(C(=O)O)N2CCN(CC(=O)O)CCN(CC(=O)O)CC2)CSSC[C@@H](C(=O)N[C@H](Cc2ccc(O)cc2)C(N)=O)NC1=O (some centres unmarked) [[^61Cu]Cu-NODAGA-LM3, metal not drawn]"
readoutkind = "tissue uptake at 4 h"
endpointresult = 0.68

[[record]]
molecule = "C[C@@H](O)[C@@H]1NC(=O)[C@H](CCCCN)NC(=O)[C@@H](Cc2ccc(NC(N)=O)cc2)NC(=O)[C@H](Cc2ccc(O)cc2)NC(=O)[C@H](NC(=O)[C@H](Cc2ccc(Cl)cc2)NC(=O)CC[C@H](C(=O)O)N2CCN(CC(=O)O)CCN(CC(=O)O)CC2)CSSC[C@@H](C(=O)N[C@H](Cc2ccc(O)cc2)C(N)=O)NC1=O [[^61Cu]Cu-(R)-NODAGA-LM3, metal not drawn]"
readoutkind = "tissue uptake at 4 h"
endpointresult = 0.78


====

- protocolDescription: Pharmacokinetics (biodistribution 1-24 h) in non-tumor bearing mice
- Assay type: in vivo
- conditionSummary: female, BALB/c, mouse, stomach, 200 umol, total radioactivity; 1 hour after injection, ^61Cu; read-out: Biodistribution Stomach
readoutKind: tissue uptake at 1 h (%ID/g)

[[record]]
molecule = "C[C@@H](O)[C@@H]1NC(=O)[C@H](CCCCN)NC(=O)[C@@H](Cc2c[nH]c3ccccc23)NC(=O)[C@H](Cc2ccc(O)cc2)NC(=O)[C@@H](NC(=O)[C@@H](Cc2ccccc2)NC(=O)CCC(C(=O)O)N2CCN(CC(=O)O)CCN(CC(=O)O)CC2)CSSC[C@@H](C(=O)N[C@H](CO)[C@@H](C)O)NC1=O (single isomer, unassigned) [[^61/^64Cu]Cu-NODAGA-TOC, metal not drawn]"
endpointresult = 2.62


====

Biodistribution HT1080.wt (FAP-negative tumor) reference
- Test system: HT-1080.hFAP and HT-1080.wt xenografts
- protocolDescription: Quantitative biodistribution in HT-1080.hFAP and HT-1080.wt xenografted mice
- Type: in vivo
- conditionSummary: 4 h p.i., HT-1080.hFAP and HT-1080.wt xenografts
readoutKind: Biodistribution HT1080.wt (FAP-negative tumor) (% IA/g)

[[record]]
molecule = "CN(C(=O)CCC(=O)NCCNC(=O)CC[C@H](C(=O)O)N1CCN2CCN(CC1)CC(=O)[O][61Cu][O]C(=O)C2)c1ccc2nccc(C(=O)NCC(=O)N3CC(F)(F)C[C@H]3C#N)c2c1 [[^61Cu]Cu-NODAGA-F2]"
endpointresult = 0.9

[[record]]
molecule = "N#C[C@@H]1CC(F)(F)CN1C(=O)CNC(=O)c1ccnc2ccc(NC(=O)CCC(=O)N3CCN(C(=O)CC[C@H](C(=O)O)N4CCN5CCN(CC4)CC(=O)[O][61Cu][O]C(=O)C5)CC3)cc12 [[^61Cu]Cu-NODAGA-F3]"
endpointresult = 1.8

[[record]]
molecule = "CN(C(=O)CCC(=O)N1CCN(C(=O)CC[C@H](C(=O)O)N2CCN3CCN(CC2)CC(=O)[O][61Cu][O]C(=O)C3)CC1)c1ccc2nccc(C(=O)NCC(=O)N3CC(F)(F)C[C@H]3C#N)c2c1 [[^61Cu]Cu-NODAGA-F4]"
endpointresult = 0.6

[[record]]
molecule = "N#C[C@@H]1CC(F)(F)CN1C(=O)CNC(=O)c1ccnc2ccc(NC(=O)CCC(=O)NCCNC(=O)CC[C@H](C(=O)O)N3CCN4CCN(CC3)CC(=O)[O][61Cu][O]C(=O)C4)cc12 [[^61Cu]Cu-NODAGA-F1]"
endpointresult = 2.1

[[record]]
molecule = "CN(CCCN1CCN(C(=O)CCC(C(=O)O)N2CCN3CCN(CC2)CC(=O)[O][61Cu][O]C(=O)C3)CC1)c1ccc2nccc(C(=O)NCC(=O)N3CC(F)(F)C[C@H]3C#N)c2c1 (some centres unmarked) [[^61Cu]Cu-NODAGA-FAPI-46]"
endpointresult = 2.5

